Test system: M14 melanoma
assay-procedure: NCI tumour cell line growth inhibition, 48 h; in the data active means GI50 below about 0.43 µM; inactive means the rest
Permitted responses: TRUE = active, FALSE = inactive

Would you please look over these solved cases?
{"compound": "Cc1ccc(C(=O)Nc2ccc(CN3CCN(C)CC3)c(C(F)(F)F)c2)cc1C#Cc1cnc(N)c2ccc(F)cc12", "assigned-category": "TRUE"}
{"compound": "S=C(N/N=C/c1cc(Cl)cc(Cl)c1)NC12CC3CC(CC(C3)C1)C2", "assigned-category": "FALSE"}
{"compound": "C[C@]12CC[C@@H]3c4ccc(O)c([N+](=O)[O-])c4CC[C@H]3[C@@H]1CC[C@@H]2NS(=O)(=O)c1ccc(C(F)(F)F)cc1", "assigned-category": "FALSE"}
{"compound": "COc1cc(/C=C2\\CN(C)CC3=C2Nc2nc(SC)[nH]c(=O)c2C3c2cc(OC)c(OC)c(OC)c2)cc(OC)c1OC (stereo not drawn)", "assigned-category": "FALSE"}
{"compound": "CC[C@H](C)[C@H](NC(=O)c1cnccn1)C(=O)N(C)[C@H](C[C@@H](OC(C)=O)c1nc(C(=O)N[C@@H](Cc2ccccc2)C[C@H](C)C(=O)OC)cs1)C(C)C", "assigned-category": "FALSE"}

Problem: Per the records of this test, what outcome belongs to "COc1cc2cc(Oc3ccc(NC(=O)c4cccc(C(F)(F)F)c4)cc3)c(C)nc2cc1OC" ?
Result: FALSE

Problem: # fetch the recorded call for "COc1cc(-c2csc(NC(=O)c3cc(C(F)(F)F)cc(C(F)(F)F)c3)n2)cc(OC)c1OC" here
Result: FALSE

Problem: # outcome recorded in this test, key = "Clc1ccc([O][In]([O]c2ccc(Cl)cn2)[O]c2ccc(Cl)cn2)nc1"
Result: FALSE
